Where do these numbers come from? They come from paper PMC5540273.

Tested on: RSK3(Kin.Dom.2-C-terminal)
Construct: gene RPS6KA2
Settings: concentration: 1 μM, replicates: in singlicate; n = 1;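 further: KINOMEscan kinase panel screen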
assay readout: %Inh (%)

INSERT INTO results (compound, assay_readout, uom, result_number) VALUES
  ('Cc1ccc(O)cc1Nc1ccnc2ccc(C(C)(C)C)cc12 [GW856805]', '%Inh', '%', 0),
  ('Cc1ccccc1CC(=O)N1CCc2cc(-c3cn(C)c4ncnc(N)c34)ccc21 [GSK2603346]', '%Inh', '%', 0),
  ('N#CC1(c2cccc(C(=O)Nc3cccc(Oc4ccc5nc(NC(=O)C6CC6)sc5n4)c3)c2)CC1', '%Inh', '%', 21),
  ('Cl.Cl.NCC(NC(=O)c1cc(-c2cccnc2)c(-c2ccnc3[nH]ccc23)s1)c1ccccc1 (stereo not shown) [GSK1323434]', '%Inh', '%', 0),
  ('Cc1ccc(NC(=O)c2ccc(Cl)c(Cl)c2)cc1-c1ccc(C(=O)Nc2ccncc2)cc1 [GSK1398460]', '%Inh', '%', 9),
  ('Nc1ncnc2scc(-c3ccc(NC(=O)Cc4cc(F)ccc4F)cc3)c12.O=C(O)C(F)(F)F [SB-731254-M]', '%Inh', '%', 6),
  ('COC(=O)Nc1nc2ccc(Oc3ccc(CC(=O)Nc4cc(C(F)(F)F)ccc4F)cc3)cc2[nH]1 [GW680903]', '%Inh', '%', 0);

---

Test system: PRKD3
Conditions: concentration: 1 μM, replicates: in singlicate; n = 1
# maps each entry to its %Inh
assay readout: %Inh (%)

INSERT INTO measurements (molecule, test_system, uom, result_number) VALUES
  ('Cc1ccc(O)cc1Nc1ccnc2cc(-c3ccc(CN4CCCCC4)o3)ccc12', 'PRKD3', '%', 95.1),
  ('Cc1nn2c(=O)cc(N3CCO[C@H](C)C3)nc2n1Cc1cccc(Cl)c1Cl', 'PRKD3', '%', 45),
  ('Cl.O=C(Nc1ccc(Oc2ccc3[nH]c(NC(=O)c4ccco4)nc3c2)cc1)Nc1cc(C(F)(F)F)ccc1F', 'PRKD3', '%', 37),
  ('Cl.Cl.NCC(NC(=O)c1cc(-c2cccnc2)c(-c2ccnc3[nH]ccc23)s1)c1ccccc1 (stereo not shown)', 'PRKD3', '%', 34),
  ('Cc1ccc(NC(=O)c2ccnc(N3CCCCC3)c2)cc1-c1ccc(C(=O)NCC2CC2)cc1', 'PRKD3', '%', 0),
  ('Cc1ccc(C)c(NC(=O)Nc2ccc(C)c(-c3ccc(C(=O)Nc4ccncc4)cc3)c2)c1', 'PRKD3', '%', 38),
  ('Cc1ccc(-c2ccc3occ(-c4ccc(S(C)=O)cc4)c3c2)nn1 (stereo not shown)', 'PRKD3', '%', 0),
  ('CCn1cnc2c(NCc3ccccc3)ncnc21', 'PRKD3', '%', 0),
  ('O=C(Nc1c(F)cccc1F)c1cc(C(=O)c2ccccc2F)c[nH]1', 'PRKD3', '%', 0),
  ('Nc1ncc(-c2ccc3nccc(-c4ccncc4)c3c2)cc1S(=O)(=O)N1CCCCC1', 'PRKD3', '%', 23),
  ('CN(c1ccc(F)c(NC(=O)c2cccc(OC(C)(C)C#N)c2Cl)c1)c1ccc2nc(NC(=O)C3CC3)sc2n1', 'PRKD3', '%', 0),
  ('Fc1cc(Cl)ccc1Nc1ccnc2cc(-c3ccc(CN4CCOCC4)o3)ccc12', 'PRKD3', '%', 19),
  ('Cl.Cl.NC(CNC(=O)c1cc(Br)c(-c2ccnc3[nH]ccc23)s1)c1ccccc1 (stereo not shown)', 'PRKD3', '%', 62);

---

# maps each entry to its %Inh
System: MKNK1
Conditions: concentration: 1 μM, replicates: in singlicate; n = 1
assay readout: %Inh (%)

INSERT INTO assay_data (compound_smiles, test_system, assay_readout, uom, result_number) VALUES
  ('COc1ccc(C)c(Nc2ccnc(Nc3ccc(-c4cnc[nH]4)cc3)n2)c1.Cl', 'MKNK1', '%Inh', '%', 8),
  ('CN1CCN(Cc2ccc(NC(=O)Nc3ccc(N(C)c4ccnc(Nc5ccc(CS(C)(=O)=O)cc5)n4)cc3)cc2)CC1.Cl', 'MKNK1', '%Inh', '%', 96.7),
  ('Nc1ncnc2scc(-c3ccc(NC(=O)Cc4cc(F)ccc4F)cc3)c12.O=C(O)C(F)(F)F', 'MKNK1', '%Inh', '%', 0),
  ('Cl.N#CCc1ccc(Nc2nccc(Nc3ccc(Oc4ccccc4)cc3)n2)cc1', 'MKNK1', '%Inh', '%', 0),
  ('CC(C)c1nc(-c2cccc(NS(=O)(=O)c3c(F)cccc3F)c2)c(-c2ccnc(Nc3ccc(N4CCOCC4)nc3)n2)s1.Cl', 'MKNK1', '%Inh', '%', 10),
  ('CNc1nccc(-c2ccc3c(N)n[nH]c3c2)n1', 'MKNK1', '%Inh', '%', 41),
  ('CC(C)(C)c1ccc(C(=O)Nc2cn3cc(-n4ccnc4)ccc3n2)cc1', 'MKNK1', '%Inh', '%', 8),
  ('O=C(O)C(F)(F)F.O=c1[nH]ccc2nc(N[C@@H]3CCNC3)nc(Nc3cc(Cl)cc(Cl)c3)c12', 'MKNK1', '%Inh', '%', 0),
  ('CN(C)CCNS(=O)(=O)c1ccc(-c2ccnc3[nH]ccc23)cc1', 'MKNK1', '%Inh', '%', 0),
  ('Cc1cc(-c2c(-c3ccc(F)cc3)ncn2CCCN2CCOCC2)nc(N)n1', 'MKNK1', '%Inh', '%', 0),
  ('COc1cc(Nc2nccc(N3CCC(NS(=O)(=O)c4ccc(NC(C)=O)cc4)CC3)n2)cc(OC)c1OC', 'MKNK1', '%Inh', '%', 0),
  ('CN(c1ccc(NC(=O)N2CCN(CCCN3CCOCC3)CC2)cc1)c1ccnc(Nc2ccc(CS(C)(=O)=O)cc2)n1.Cl', 'MKNK1', '%Inh', '%', 33),
  ('Cc1nn2c(=O)cc(N3CCO[C@H](C)C3)nc2n1Cc1cccc(Cl)c1Cl', 'MKNK1', '%Inh', '%', 0),
  ('CCn1c(-c2nonc2N)nc2c(-c3ccccc3)ncc(OCCCN)c21.O=C(O)C(F)(F)F.O=C(O)C(F)(F)F', 'MKNK1', '%Inh', '%', 0),
  ('Nc1ncc(-c2ccc3nccc(-c4ccncc4)c3c2)cc1S(=O)(=O)N1CCCCC1', 'MKNK1', '%Inh', '%', 2),
  ('Cl.O=C(Nc1ccc(Oc2ccc3[nH]c(NC(=O)c4ccco4)nc3c2)cc1)Nc1cc(C(F)(F)F)ccc1F', 'MKNK1', '%Inh', '%', 46),
  ('CC(=O)Nc1cn2nc(Oc3cccc(NC(=O)c4cccc(C(F)(F)F)c4)c3)ccc2n1', 'MKNK1', '%Inh', '%', 0),
  ('Cc1ccc(O)cc1Nc1ccnc2cc(-c3ccc(CN4CCCCC4)o3)ccc12', 'MKNK1', '%Inh', '%', 0),
  ('CN(C)c1ncnc2nc[nH]c12', 'MKNK1', '%Inh', '%', 0),
  ('COc1cccc(-c2nc(-c3ccccc3)[nH]c2-c2ccncc2)c1', 'MKNK1', '%Inh', '%', 22),
  ('Cn1cc(-c2ccc3c(c2)CCN3C(=O)Cc2cc(F)cc(C(F)(F)F)c2)c2c(N)ncnc21', 'MKNK1', '%Inh', '%', 0),
  ('COC(=O)Nc1nc2ccc(Oc3ccc(CC(=O)Nc4cc(C(F)(F)F)ccc4F)cc3)cc2[nH]1', 'MKNK1', '%Inh', '%', 13),
  ('O=C(Nc1n[nH]c2nc(-c3ccccc3O)ccc12)C1CC1', 'MKNK1', '%Inh', '%', 0),
  ('O=C(Nc1c(F)cccc1F)c1cc(C(=O)c2ccccc2F)c[nH]1', 'MKNK1', '%Inh', '%', 10);

---

# maps each entry to its %Inh
System: MYLK
Conditions: concentration: 1 μM, replicates: in singlicate; n = 1
assay readout: %Inh (%)

INSERT INTO results (compound, assay_readout, uom, result_number) VALUES
  ('O=C(Nc1n[nH]c2cc(-c3cccs3)ccc12)C1CC1', '%Inh', '%', 52),
  ('CN(c1ccc(NC(=O)N2CCN(CCCN3CCOCC3)CC2)cc1)c1ccnc(Nc2ccc(CS(C)(=O)=O)cc2)n1.Cl', '%Inh', '%', 0),
  ('NCCC(NC(=O)c1cc(Br)c(-c2ccnc3[nH]ccc23)s1)c1ccccc1.O=C(O)C(F)(F)F.O=C(O)C(F)(F)F (stereo not shown)', '%Inh', '%', 34),
  ('O=C(Nc1n[nH]c2nc(-c3ccccc3O)ccc12)C1CC1', '%Inh', '%', 28),
  ('CCNc1nccc(-c2c(-c3ccc(F)cc3)ncn2C2CCN(C)CC2)n1', '%Inh', '%', 0),
  ('Fc1cc(Cl)ccc1Nc1ccnc2cc(-c3ccc(CN4CCSCC4)o3)ccc12', '%Inh', '%', 38),
  ('Cc1nn2c(=O)cc(N3CCO[C@H](C)C3)nc2n1Cc1cccc(Cl)c1Cl', '%Inh', '%', 0),
  ('Cc1ccccc1CC(=O)N1CCc2cc(-c3cn(C)c4ncnc(N)c34)ccc21', '%Inh', '%', 9),
  ('Cc1ccc(O)cc1Nc1ccnc2ccc(C(C)(C)C)cc12', '%Inh', '%', 25),
  ('Nc1cccc(-c2ccc3c(N)n[nH]c3c2)c1', '%Inh', '%', 40);
